Listed below: pIC50 values for each entry.
# tested.on: KRAS G12S (Homo sapiens (Human), UniProt P01116+P62937, G12S)
# Sequence (P01116-2 other isoform, or with tags, fused parts or gaps G12S): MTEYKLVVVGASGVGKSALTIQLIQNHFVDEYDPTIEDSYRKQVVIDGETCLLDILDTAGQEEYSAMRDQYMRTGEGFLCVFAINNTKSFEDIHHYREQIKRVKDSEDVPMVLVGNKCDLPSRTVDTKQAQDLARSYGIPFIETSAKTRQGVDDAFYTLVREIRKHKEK
# Sequence (P62937 whole entry): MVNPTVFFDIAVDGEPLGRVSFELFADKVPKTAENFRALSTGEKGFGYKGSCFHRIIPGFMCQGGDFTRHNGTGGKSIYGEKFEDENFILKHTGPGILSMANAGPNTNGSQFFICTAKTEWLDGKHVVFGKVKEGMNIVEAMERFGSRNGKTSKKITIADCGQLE
# experimental.details: Ras-Raf (BRAF RBD) disruption / FRET / MOA assay, KRAS G12S
# Format: biochemical
# condition.context: Ras-Raf disruption/FRET/MOA assay; class symbols; read-out: KRAS G12S FRET data IC50
pIC50: −log10 of the molar value.

compound	pIC50
C=CC(=O)N1CCC2(CCCN(C(=O)N(C)[C@H](C(=O)N[C@H]3Cc4nc(cs4)-c4ccc5c(c4)c(c(-c4cccnc4[C@H](C)OC)n5CC)CC(C)(C)COC(=O)[C@@H]4CCCN(N4)C3=O)C(C)C)C2)CC1 (atropisomer, axis not shown)	6.00 to 7.00

--- query ---
Task: What value of measured pIC50 is listed for "C=CC(=O)N1CC[C@H](C(=O)N(C)[C@H](C(=O)N[C@H]2Cc3cc(N)cc(c3)-c3ccc4c(c3)c(c(-c3ccccc3CCOC)n4CC)CC(C)(C)COC(=O)[C@@H]3CCCN(N3)C2=O)C(C)C)C1" ?
Output: < 5.00

###

# tested.on: KRAS G13D (Homo sapiens (Human), UniProt P01116+P62937, G13D)
# Sequence (P01116-2 other isoform, or with tags, fused parts or gaps G13D, one chain of several): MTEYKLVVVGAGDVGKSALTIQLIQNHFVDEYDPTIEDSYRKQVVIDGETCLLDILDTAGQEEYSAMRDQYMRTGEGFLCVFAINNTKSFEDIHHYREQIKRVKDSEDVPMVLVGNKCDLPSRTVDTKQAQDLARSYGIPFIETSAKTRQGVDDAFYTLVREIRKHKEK
# experimental.details: Ras-Raf (BRAF RBD) disruption / FRET / MOA assay, KRAS G13D
# Assay type: biochemical
# condition.context: read-out: IC50* KRAS G13D FRET data
# Method: The purpose of this biochemical assay is to measure the ability of test compounds to facilitate ternary complex formation between a nucleotide-loaded Ras isoform and cyclophilin A; the resulting ternary complex disrupts binding to a BRAF^RBD construct, inhibiting Ras signaling through a RAF effector. Compound is present in plate wells as a 10-point 3-fold dilution series starting at a final concentration of 30 μM. […]
pIC50: −log10 of the molar value.
Listed below: pIC50 values for each entry.

structure	tested.on	pIC50
CCn1c(-c2cnccc2[C@H](C)OC)c2c3cc(ccc31)-c1cccc(c1)C[C@H](NC(=O)[C@H](C(C)C)N(C)C(=O)[C@H]1CCN(C(=O)C#CCN(C)C)C1)C(=O)N1CCC[C@H](N1)C(=O)OCC(C)(C)C2	KRAS G13D (Homo sapiens (Human), UniProt P01116+P62937, G13D)	5.00 to 6.00

--- query ---
Task: What value of measured pIC50 is listed for "C=CC(=O)N1CC[C@H](C(=O)N(C)[C@H](C(=O)N[C@H]2Cc3cc(O)cc(c3)-c3ccc4c(c3)c(c(-c3cn(C)nc3[C@H](C)OC)n4CC)CC(C)(C)COC(=O)[C@@H]3CCCN(N3)C2=O)C(C)C)C1" ?
Output: 5.00 to 6.00

###

# tested.on: KRAS G12D (Homo sapiens (Human), UniProt P01116+P62937, G12D)
# Sequence (P01116-2 other isoform, or with tags, fused parts or gaps G12D, one chain of several): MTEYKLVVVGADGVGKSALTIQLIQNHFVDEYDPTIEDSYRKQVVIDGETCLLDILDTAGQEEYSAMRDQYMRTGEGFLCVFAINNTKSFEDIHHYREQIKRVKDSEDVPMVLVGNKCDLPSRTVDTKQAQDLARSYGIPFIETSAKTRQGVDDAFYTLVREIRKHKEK
# experimental.details: Ras-Raf (BRAF RBD) disruption / FRET / MOA assay, KRAS G12D
# Format: biochemical
# condition.context: Ras-Raf disruption/FRET/MOA assay; class symbols; read-out: KRAS G12D FRET data IC50
result.type: IC50

Below, 6 compounds whose answers are already recorded.
compound	tested.on	assay.result
C=CC(=O)N1CCC[C@@H]2CN(C(=O)N(C)[C@H](C(=O)N[C@H]3Cc4nc(cs4)-c4ccc5c(c4)c(c(-c4cccnc4[C@H](C)OC)n5CC)CC(C)(C)COC(=O)[C@@H]4CCCN(N4)C3=O)C(C)C)C[C@@H]21 (atropisomer, axis not shown)	KRAS G12D (Homo sapiens (Human), UniProt P01116+P62937, G12D)	1000 to 10000 nM
C=CC(=O)N1C[C@@H]2CN(C(=O)N(C)[C@H](C(=O)N[C@H]3Cc4nc(cs4)-c4ccc5c(c4)c(c(-c4cccnc4[C@H](C)OC)n5CC)CC(C)(C)COC(=O)[C@@H]4CCCN(N4)C3=O)C(C)C)C[C@@H]2C1 (atropisomer, axis not shown)	KRAS G12D (Homo sapiens (Human), UniProt P01116+P62937, G12D)	100 to 1000 nM
C=CC(=O)N1CC[C@H](C(=O)N(C)[C@H](C(=O)N[C@H]2Cc3cc(O)cc(c3)-c3ccc4c(c3)c(c(-c3ccccc3CCOC)n4CC)C[C@H](C)COC(=O)[C@@H]3CCCN(N3)C2=O)C(C)C)C1	KRAS G12D (Homo sapiens (Human), UniProt P01116+P62937, G12D)	> 10000 nM
C=CC(=O)N1CC(C(=O)N(C)[C@H](C(=O)N[C@H]2Cc3cc(O)cc(c3)-c3ccc4c(c3)c(c(-c3cccnc3COC)n4CC)CC(C)(C)COC(=O)[C@@H]3CCCN(N3)C2=O)C(C)C)C1 (single isomer, unassigned)	KRAS G12D (Homo sapiens (Human), UniProt P01116+P62937, G12D)	1000 to 10000 nM
CCn1c(-c2cccnc2[C@H](C)OC)c2c3cc(ccc31)-c1cc(O)cc(c1)C[C@H](NC(=O)[C@H](C(C)C)N(C)C(=O)[C@H]1CCN(C(=O)C#CCN3[C@H](C)COC[C@@H]3C)C1)C(=O)N1CCC[C@H](N1)C(=O)OCC(C)(C)C2 (atropisomer, axis not shown)	KRAS G12D (Homo sapiens (Human), UniProt P01116+P62937, G12D)	1000 to 10000 nM
CCn1c(-c2cccnc2[C@H](C)OC)c2c3cc(ccc31)-c1cc(O)cc(c1)C[C@H](NC(=O)[C@H](C(C)C)N(C)C(=O)[C@H]1CCN(C(=O)/C=C/C(F)(F)F)C1)C(=O)N1CCC[C@H](N1)C(=O)OCC(C)(C)C2	KRAS G12D (Homo sapiens (Human), UniProt P01116+P62937, G12D)	100 to 1000 nM

Task: Checklist item: IC50 tested on KRAS G12D (Homo sapiens (Human), UniProt P01116+P62937, G12D), entry "C=CC(=O)N1CC[C@H](C(=O)N(C)[C@H](C(=O)N[C@H]2Cc3cc(OC(=O)N(C)CC(=O)O)cc(c3)-c3ccc4c(c3)c(c(-c3ccccc3CCOC)n4CC)CC(C)(C)COC(=O)[C@@H]3CCCN(N3)C2=O)C(C)C)C1" , value?
Output: > 10000 nM

Task: How about this compound: CCn1c(-c2cccnc2[C@H](C)OC)c2c3cc(ccc31)-c1cccc(c1)C[C@H](NC(=O)[C@H](C(C)C)N1CC[C@]3(CCN(C(=O)C#CC(C)(C)N(C)C)C3)C1=O)C(=O)N1CCC[C@H](N1)C(=O)OCC(C)(C)C2 (atropisomer, axis not shown)
Output: 1000 to 10000 nM
